System: BxPC-3 cells
assayProtocol: Cell viability assay (CellTiter Glo)
Format: cell-based
measurementParameters: Homo sapiens, 72 h
Method: BxPC-3 cells were grown in RPMI 1640 containing 10% FBS, 100 U/ml penicillin/streptomycin, 2 mM glutamine. All media and supplements were from Sigma-Aldrich. Cultures were routinely tested for Mycoplasma contamination. […] Cell viability was assessed by CellTiter Glo, Luminescent Cell Viability Assay. […] The plate was kept on a shaker for 2 min to induce cell lysis and its luminescence was measured by using a Fluoroskan Ascent FL reader (Labsystems) using manufacturer's instructions.
attributeMeasured: pEC50
Please treat pEC50 as minus the base-10 logarithm of the molar concentration.

Prompt: // pEC50 lookup, key: CC(=O)N1N=C(c2c(-c3ccccc3)c3cc(Cl)ccc3[nH]c2=O)CC1c1ccc(Br)cc1 (centres unmarked)
Response: 4.74

Prompt: Same for CCn1cc2cc(-c3ccc(C4CC(c5c(Cc6ccccc6)c6cc(Cl)ccc6[nH]c5=O)=NN4C(=O)CCC(=O)O)cc3)ccc2n1 (centres unmarked)
Response: 4.25

Prompt: And the next one, CC(=O)N1N=C(c2c(-c3ccccc3)c3cc(Cl)ccc3[nH]c2=O)CC1c1ccco1 (centres unmarked) ?
Response: 4.64

Prompt: One more molecule: O=C(O)CCC(=O)N1N=C(c2c(Cc3ccccc3)c3cc(Cl)ccc3[nH]c2=O)CC1c1ccc(F)cc1 (centres unmarked)
Response: 4.82

Prompt: Lookup O=C(O)CCC(=O)N1N=C(c2c(-c3ccccc3)c3cc(Cl)ccc3[nH]c2=O)CC1c1cccnc1 (centres unmarked)
Response: 3.84

Prompt: Also CCn1ncc2cc(C3CC(c4c(-c5ccccc5)c5cc(Cl)ccc5[nH]c4=O)=NN3C(C)=O)ccc21 (centres unmarked) , if possible.
Response: 4.57

Prompt: Likewise for O=C(O)CCC(=O)N1N=C(c2c(Cc3ccccc3)c3cc(Cl)ccc3[nH]c2=O)CC1c1ccc(Cl)cc1 (centres unmarked) ?
Response: 4.63

Prompt: Please answer likewise for O=C(O)CCC(=O)N1N=C(c2c(-c3ccccc3)c3cc(Cl)ccc3[nH]c2=O)CC1c1ccc(-c2ccc(Cl)cc2)cc1 (centres unmarked)
Response: 4.38

---

assayProtocol: Pharmacokinetic studies in mice, plasma levels by LC/MS-MS
Format: in vivo, C57B6/J mice
measurementParameters: male, C57B6/J; mouse plasma, PO 2 mg/kg, 15 min; read-out: Average conc.
attributeMeasured: concentration at 15 min (ng/mL)
Write down the numeric answer in ng/mL and omit the unit.

Prompt: Returns the measured concentration at 15 min for the input compound. Input: CCC(=O)N1N=C(c2c(-c3ccccc3)c3cc(Cl)ccc3[nH]c2=O)CC1c1ccc(OC)cc1 (stereo not shown)
Response: 42

---

assayProtocol: Pharmacokinetic studies in mice, plasma levels by LC/MS-MS
Format: in vivo, C57B6/J mice
measurementParameters: male, C57B6/J, mouse, plasma; mice, IV 2 mg/kg
attributeMeasured: Cmax (ng/mL)
Report only the number, with the unit ng/mL understood.

Prompt: # get_value(readout='Cmax', item= CCC(=O)N1N=C(c2c(-c3ccccc3)c3cc(Cl)ccc3[nH]c2=O)CC1c1ccc(OC)cc1 (stereo not shown) )
Response: 973

---

targetSystem: BRC4/RAD51 interaction (Homo sapiens)
Construct: Life Technologies (BRC4 peptide)
assayProtocol: Competitive ELISA assay, disruption of BRC4/RAD51 interaction
measurementParameters: human Rad51, biotinylated BRC4 peptide
Assignment: determine reported EC50 for the given compounds.
Provide only the numeric value, understood in µM.

Prompt: Which EC50 is reported with BRC4/RAD51 interaction (Homo sapiens) for this entry: CC(=O)N1N=C(c2c(-c3ccccc3)c3cc(Cl)ccc3[nH]c2=O)CC1c1ccc(Br)cc1 (stereo not drawn) ?
Response: 38

Prompt: Also, O=C(O)CCC(=O)N1N=C(c2c(-c3ccccc3)c3cc(Cl)ccc3[nH]c2=O)CC1c1cccnc1 (stereo not drawn) please.
Response: 75

Prompt: // query: COc1ccc(C2CC(c3c(Cc4ccccc4)c4cc(Cl)ccc4[nH]c3=O)=NN2C(=O)CCC(=O)O)cc1F (stereo not drawn)
Response: 25

Prompt: What do you get for O=C(O)CCC(=O)N1N=C(c2c(-c3ccccc3)c3cc(Cl)ccc3[nH]c2=O)CC1c1ccc(Br)cc1 (stereo not drawn) ?
Response: 16

Prompt: Now consider O=C(O)CCC(=O)N1N=C(c2c(Cc3ccccc3)c3cc(Cl)ccc3[nH]c2=O)CC1c1ccc(-c2ccc(Cl)cc2)cc1 (stereo not drawn) .
Response: 90

Prompt: Please answer likewise for CC(=O)N1N=C(c2c(-c3ccccc3)c3cc(Cl)ccc3[nH]c2=O)CC1c1ccc(-c2ccc(Cl)cc2)cc1 (stereo not drawn)
Response: 45

Prompt: Note, next up: CCCn1cc(-c2ccc(C3CC(c4c(-c5ccccc5)c5cc(Cl)ccc5[nH]c4=O)=NN3C(C)=O)cc2)cn1 (stereo not drawn)
Response: 46

Prompt: Then this compound: CC(=O)N1N=C(c2c(-c3ccccc3)c3cc(Cl)ccc3[nH]c2=O)CC1c1ccc(-c2ccc(Br)cc2)cc1 (stereo not drawn)
Response: 45

Prompt: Repeat with CCC(=O)N1N=C(c2c(-c3ccccc3)c3cc(Cl)ccc3[nH]c2=O)CC1c1ccccc1 (stereo not drawn)
Response: 24

Prompt: Same lookup for O=C(O)CCC(=O)N1N=C(c2c(Cc3ccccc3)c3cc(Cl)ccc3[nH]c2=O)CC1c1cccnc1 (stereo not drawn) , please.
Response: 15

Prompt: Entry CCC(=O)N1N=C(c2c(-c3ccccc3)c3cc(Cl)ccc3[nH]c2=O)CC1c1ccc(F)cc1 (stereo not drawn) please
Response: 34

---

assayProtocol: Pharmacokinetic studies in mice, plasma levels by LC/MS-MS
Type: in vivo, C57B6/J mice
measurementParameters: male, C57B6/J, mouse, plasma; mice, IP 20 mg/kg; read-out: t1/2 (calc)
attributeMeasured: half-life (h)
Respond with the bare value in h.

Prompt: Report half-life for CCC(=O)N1N=C(c2c(-c3ccccc3)c3cc(Cl)ccc3[nH]c2=O)CC1c1ccc(OC)cc1 (stereo not shown) please.
Response: 2.92

---

System: BxPC-3 cells
assayProtocol: Cell viability assay (CellTiter Glo)
Assay type: cell-based
measurementParameters: Homo sapiens, 72 h
attributeMeasured: EC50

Prompt: Quick one: EC50 of O=C(O)CCC(=O)N1N=C(c2c(-c3ccccc3)c3cc(Cl)ccc3[nH]c2=O)CC1c1ccc(F)cc1 (stereo not drawn) ?
Response: > 50 µM

Prompt: Check COc1ccc(C2CC(c3c(-c4ccccc4)c4cc(Cl)ccc4[nH]c3=O)=NN2C(=O)CCC(=O)O)cc1 (stereo not drawn) too.
Response: > 50 µM

Prompt: Another molecule: Cn1cc2cc(C3CC(c4c(-c5ccccc5)c5cc(Cl)ccc5[nH]c4=O)=NN3C(=O)CCC(=O)O)ccc2n1 (stereo not drawn)
Response: > 100 µM

---

targetSystem: BRC4/RAD51 interaction (Homo sapiens, UniProt Q06609)
Construct: Life Technologies (BRC4 peptide)
Sequence (Q06609 whole entry): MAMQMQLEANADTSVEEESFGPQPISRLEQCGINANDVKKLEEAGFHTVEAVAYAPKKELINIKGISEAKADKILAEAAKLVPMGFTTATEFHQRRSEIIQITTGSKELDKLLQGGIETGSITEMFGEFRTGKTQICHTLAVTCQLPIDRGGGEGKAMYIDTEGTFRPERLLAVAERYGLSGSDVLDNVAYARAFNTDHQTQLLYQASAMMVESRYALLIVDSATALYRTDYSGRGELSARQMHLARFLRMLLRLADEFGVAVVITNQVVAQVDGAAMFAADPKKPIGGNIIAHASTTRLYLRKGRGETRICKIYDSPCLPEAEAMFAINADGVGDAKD
assayProtocol: Competitive ELISA assay, disruption of BRC4/RAD51 interaction
measurementParameters: human Rad51, biotinylated BRC4 peptide
Give measured EC50 for each item. Keep answers brief.
Output spec: scalar in µM, unitless text.

Prompt: Looking for the measured EC50 of CCC(=O)N1N=C(c2c(-c3ccccc3)c3cc(Cl)ccc3[nH]c2=O)CC1c1ccc(OC)cc1 (stereo not shown) , can you help?
Response: 19

Prompt: Next molecule up: O=C(O)CCC(=O)N1N=C(c2c(Cc3ccccc3)c3cc(Cl)ccc3[nH]c2=O)CC1c1ccc(Cl)cc1 (stereo not shown)
Response: 70

Prompt: Follow-up item: COc1ccc(-c2ccc(C3CC(c4c(-c5ccccc5)c5cc(Cl)ccc5[nH]c4=O)=NN3C(C)=O)cc2)cc1 (stereo not shown)
Response: 70

Prompt: CCn1cc2cc(C3CC(c4c(-c5ccccc5)c5cc(Cl)ccc5[nH]c4=O)=NN3C(=O)CCC(=O)O)ccc2n1 (stereo not shown) ?
Response: 28

---

Field: EC50. Provide a value for each of the compounds that follow.
Tested on: BxPC-3 cells
assayProtocol: Cell viability assay (CellTiter Glo)
Type: cell-based
measurementParameters: Homo sapiens, 72 h

Prompt: Recorded EC50 of Cn1ccc2cc(C3CC(c4c(-c5ccccc5)c5cc(Cl)ccc5[nH]c4=O)=NN3C(=O)CCC(=O)O)ccc21 (centres unmarked) , please.
Response: > 20 µM

Prompt: Also O=C(O)CCC(=O)N1N=C(c2c(-c3ccccc3)c3cc(Cl)ccc3[nH]c2=O)CC1c1ccco1 (centres unmarked) , if possible.
Response: > 100 µM

Prompt: Field entry: O=C(O)CCC(=O)N1N=C(c2c(-c3ccccc3)c3cc(Cl)ccc3[nH]c2=O)CC1c1ccc(Cl)cc1 (centres unmarked)
Response: > 50 µM

Prompt: Cn1ncc2cc(C3CC(c4c(-c5ccccc5)c5cc(Cl)ccc5[nH]c4=O)=NN3C(=O)CCC(=O)O)ccc21 (centres unmarked) ?
Response: > 50 µM

Prompt: // repeat for CCn1ncc2cc(C3CC(c4c(-c5ccccc5)c5cc(Cl)ccc5[nH]c4=O)=NN3C(=O)CCC(=O)O)ccc21 (centres unmarked) and report
Response: > 50 µM

Sourced from patent US12459914B2
